Reported % Remaining 0 min is given for each of the following compounds.
Assay: Ex-vivo mouse plasma stability study of ^177Lu-labeled compounds
Assay type: in vitro ADME
Details: 37° C., 0 min

| compound | unit_abbrev | % Remaining 0 min |
| --- | --- | --- |
| O=C(O)CC[C@H](NC(=O)N[C@@H](CCCCNC(=O)[C@H](Cc1ccc2ccccc2c1)NC(=O)C1CCC(CNC(=O)CN2CCN(CC(=O)O)CCN(CC(=O)O)CCN(CC(=O)O)CC2)CC1)C(=O)O)C(=O)O (stereo partly drawn) [Example C-1, reference compound] | % | 100 |
| O=C(O)CCCCCCCCCCCCCCCCC(=O)N[C@@H](CCC(=O)NCCOCCOCC(=O)NCCOCCOCC(=O)N[C@@H](CCCCNC(=O)CCCOC(=O)CNC(=O)CNC(=O)CNC(=O)CNC(=O)CN1CCN(CC(=O)O)CCN(CC(=O)O)CCN(CC(=O)O)CC1)C(=O)NCCOCCOCC(=O)NC[C@H]1CC[C@H](C(=O)N[C@@H](Cc2ccc3ccccc3c2)C(=O)NCCCC[C@H](NC(=O)N[C@@H](CCC(=O)O)C(=O)O)C(=O)O)CC1)C(=O)O | % | 100 |
| O=C(O)CC[C@H](NC(=O)N[C@@H](CCCCNC(=O)[C@H](Cc1ccc2ccccc2c1)NC(=O)[C@H]1CC[C@H](CNC(=O)[C@H](CCCCNC(=O)CN2CCN(CC(=O)O)CCN(CC(=O)O)CCN(CC(=O)O)CC2)NC(=O)[C@H](CCC(=O)O)NC(=O)CCCc2ccc(I)cc2)CC1)C(=O)O)C(=O)O [Example C-2, 4pIBA-Glu-Lys(DOTA)-Trx-2NaI-eKuE, reference compound] | % | 100 |

* * *

Test system: PC-3 PIP tumor-bearing mice
Assay: Biodistribution study in SCID mice bearing PC3-PIP tumor; further: unit not given here
Format: in vivo, mouse
Conditions: PC3 PIP tumor-bearing mice, 24 h
Reported T at 24 h (tumor uptake) is given for each of the following molecules.

| molecule | T at 24 h (tumor uptake) |
| --- | --- |
| O=C(O)CC[C@H](NC(=O)N[C@@H](CCCCNC(=O)[C@H](Cc1ccc2ccccc2c1)NC(=O)[C@H]1CC[C@H](CNC(=O)[C@H](CCCCNC(=O)CCCOC(=O)CNC(=O)CN2CCN(CC(=O)O)CCN(CC(=O)O)CCN(CC(=O)O)CC2)NC(=O)[C@H](CCC(=O)O)NC(=O)CCCc2ccc(I)cc2)CC1)C(=O)O)C(=O)O [Example I-3, 4pIBA-Glu-Lys(-ESL1-DOTA)-Trx-2NaI-eKuE] | 13.9 |
| O=C(O)CC[C@H](NC(=O)N[C@@H](CCCCNC(=O)[C@H](Cc1ccc2ccccc2c1)NC(=O)[C@H]1CC[C@H](CNC(=O)COCCOCCNC(=O)[C@H](CCCCNC(=O)CCCOC(=O)CNC(=O)CN2CCN(CC(=O)O)CCN(CC(=O)O)CCN(CC(=O)O)CC2)NC(=O)[C@H](CCCCNC(=O)COCCOCCNC(=O)COCCOCCNC(=O)[C@H](CCC(=O)O)NC(=O)CCCc2ccc(I)cc2)NC(=O)COCCOCCNC(=O)COCCOCCNC(=O)[C@H](CCC(=O)O)NC(=O)CCCc2ccc(I)cc2)CC1)C(=O)O)C(=O)O | 16.7 |
| O=C(O)CC[C@H](NC(=O)N[C@@H](CCCCNC(=O)[C@H](Cc1ccc2ccccc2c1)NC(=O)[C@H]1CC[C@H](CNC(=O)[C@H](CCCCNC(=O)CN2CCN(CC(=O)O)CCN(CC(=O)O)CCN(CC(=O)O)CC2)NC(=O)[C@H](CCC(=O)O)NC(=O)CCCc2ccc(I)cc2)CC1)C(=O)O)C(=O)O [Example C-2, 4pIBA-Glu-Lys(DOTA)-Trx-2NaI-eKuE, reference compound] | 41.1 |
| O=C(O)CC[C@H](NC(=O)N[C@@H](CCCCNC(=O)[C@H](Cc1ccc2ccccc2c1)NC(=O)[C@H]1CC[C@H](CNC(=O)[C@H](CCCCNC(=O)CN2CCN(CC(=O)O)CCN(CC(=O)O)CCN(CC(=O)O)CC2)NC(=O)CCCOC(=O)CNC(=O)[C@H](CCC(=O)O)NC(=O)CCCc2ccc(I)cc2)CC1)C(=O)O)C(=O)O | 32.4 |
